The values you see were collected from patent US20240254222A1.

Attribute: VAL norm to TPP-9809 (1 to 5 ratio)
- target_under_test: T1, Human Semaphorin3A-Fc (R&D Systems), TPP-13211 (human)
- T1 construct: R&D Systems 1250-S3; also called recombinant human Sema3A-Fc chimera
- experiment: competition ELISA on coated TPP-13211, competitor biotinylated TPP-15374
Give only the figure.

Ask | What value of measured VAL norm to TPP-9809 (1 to 5 ratio) is listed for TPP-25224 (antibody, human IgG1, lambda, V domains shown) VH: EVQLLESGGGLVQPGGSLRLSCAASGFTFDSYEMNWVRQAPGKGLEWVSGISWNSGWIDYADSVKGRFTISRDNSKNTLYLQMNSLRAEDTAVYYCARSGYSSSWFDPDFDYWGQGTLVTVSS VL: QSVLTQPPSVSGAPGQRVTISCTGSSSNIGAGYDVHWYQQLPGTAPKLLIYGNSNRPSGVPDRFSGSKSGTSASLAITGLQAEDEADYYCQSYAGINPYVVFGGGTKLTVLG ?
Reply | 0.17

Ask | Also, TPP-25448 (antibody, human IgG1, lambda, V domains shown) VH: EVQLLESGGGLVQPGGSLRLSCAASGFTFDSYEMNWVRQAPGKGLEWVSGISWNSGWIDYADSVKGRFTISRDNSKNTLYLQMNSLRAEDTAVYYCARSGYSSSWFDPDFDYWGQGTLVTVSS VL: QSVLTQPPSVSGAPGQRVTISCTGSSSDIGAGYDVHWYQQLPGTAPKLLIYGNSNRPSGVPDRFSGSKSGTSASLAITGLQAEDEADYYCQSYAGINPYVVFGGGTKLTVLG please.
Reply | 0.19
